Run Description: comparison of toxicity in mice: oral LD50 by the Lichtfiel & Wilcoxon method
Assay type: in vivo
Condition Notes: mouse, in vivo, observation period 7 days, 95% confidence limit in brackets, read-out: LD50
Text: In Table 3 the mean lethal doses for mice, administered orally (LD50 determination by the […] & WILCOXON method - J.Pharmacol. Exp. Ther. 96,98 (1949)) are compared.
Each entry falls into one class according to its LD50; the ranges are I: < 2000 mg/kg; II: ≥ 2000 mg/kg and < 4000 mg/kg; III: ≥ 4000 mg/kg

Request: Which class holds C=CCc1cc2c(cc1C(O)(c1ccc(OC)cc1)C(C)N1CCCCC1)OCO2 (stereo not drawn) ?
Response: I

Request: CCOc1c(C(C)C)cc(C(O)(c2ccc(OC)cc2)C(C)N2CCCCC2)cc1C(C)C (stereo not drawn) ?
Response: I

Request: CCCC(C)(C)c1cc(C)c(OC)c(C(O)(c2ccccc2)C(C)N2CCCC2)c1 (stereo not drawn)
Response: III

Request: Then what about the molecule CCOc1ccc(C(O)(c2cc(C(C)C)c(OC)c(C(C)C)c2)C(C)N2CCCCC2)cc1 (stereo not drawn) ?
Response: III

Request: Same again, this time with COc1cc(C)c(C(O)(c2ccccc2)C(C)N2CCCC2)cc1C(C)(C)C (stereo not drawn)
Response: II

Request: Now this one: COc1c(C)cc(C(C)(C)C)cc1C(O)(c1ccccc1)C(C)N1CCCCC1 (stereo not drawn)
Response: II

Request: Then CCOc1ccc(C(O)(c2cc(C(C)C)c(OCC)c(C(C)C)c2)C(C)N2CCCCC2)cc1 (stereo not drawn) ?
Response: I

Request: Try this molecule too: COc1ccc(C(O)(c2cc(C(C)C)c(OC)c(C(C)C)c2)C(C)N2CCCCC2)cc1OC (stereo not drawn)
Response: II

Request: Check COc1ccc(C)cc1C(O)(c1cc(C(C)C)c(OCc2ccccc2)c(C(C)C)c1)C(C)N1CCCCC1 (stereo not drawn) too.
Response: II

Request: // same read-out, input: COc1ccc(C(O)(c2cc(C(C)(C)C)cc(C)c2OC)C(C)N2CCCCC2)c(OC)c1 (stereo not drawn)
Response: III

Request: And what about the molecule COc1ccc(C(O)(c2cc(C(C)C)c(OC)c(C(C)C)c2)C(C)N2CCCCC2)cc1 (stereo not drawn) ?
Response: III

Request: // same read-out, input: COc1c(C)cc(C(O)(c2cc(Cl)cc(C)c2OC)C(C)N(C)C(C)(C)C)cc1C (stereo not drawn)
Response: II

Request: Subsequent entry: COc1ccc(C(O)(c2cc(C(C)(C)C)cc(C)c2OC)C(C)N2CCCCC2)cc1OC (stereo not drawn)
Response: III

Request: # repeat for COc1ccc(C(C)(C)C)cc1C(O)(c1ccccc1)C(C)N1CCCCC1 (stereo not drawn)
Response: I

Request: What would you report for COc1c(C(C)C)cc(Cl)c(C)c1C(O)(c1ccccc1)C(C)N1CCCC1 (stereo not drawn) ?
Response: III

====

Run Description: saluretic efficiency test in rats: elimination of water, sodium, chloride and potassium in 6 h urine after oral dosing
Assay type: in vivo
Condition Notes: Rattus norvegicus; rats, oral, 80 μmol/kg body wt.; deviation from control mean plus twice the standard deviation; 6 h urine; read-out: Mean percentage variation in the elimination of Chloride
Exercise: for every item that follows, state its recorded change in vivo at 80 µmol/kg.
The reply should be a number in %, with the unit left off.

Request: Could you tell me which change in vivo at 80 µmol/kg is on file for COc1ccc(C(O)(c2cc(C(C)(C)C)cc(C)c2OC)C(C)N2CCCCC2)cc1OC (stereo not shown) [T 2464] ?
Response: 38.3

Request: And COc1c(C)cc(C(O)(c2cc(C(C)C)c(OC)c(C(C)C)c2)C(C)N2CCCCC2)cc1C (stereo not shown) [T 2266] ?
Response: 12.2

Request: Another: Cc1c(C(O)(c2ccccc2)C(C)N2CCCCC2)cc2c(c1C)OCCC2 (stereo not shown) [T 2129]
Response: 22

Request: Same read-out for COc1ccc(C(C)(C)C)cc1C(O)(c1ccccc1)C(C)N1CCCCC1 (stereo not shown) [T 2259] ?
Response: 110

====

Run Description: saluretic efficiency test in rats: elimination of water, sodium, chloride and potassium in 6 h urine after oral dosing
Assay type: in vivo
Condition Notes: Rattus norvegicus; rats, oral, 40 μmol/kg body wt.; deviation from control mean plus twice the standard deviation; 6 h urine; read-out: Mean percentage variation in the elimination of H2O
Experimental: In order to test the saluretic efficiency of the compounds of the invention rats having a weight of 150 to 200 g were used. The animals were kept without food, but not without drinking water, for 15 hours before the beginning of the test. […] From the analysis results the quantities of Na^+, K^+ and Cl^- eliminated were calculated in […] body weight, and the values thus obtained compared with those of the control animals. […]
Would you please tag the item True when its change in vivo at 40 µmol/kg is 30% or above, and False when it is below?

Request: Does change in vivo at 40 µmol/kg meet or surpass 30% for CCOc1ccc(C(O)(c2cc(C(C)C)c(OC)c(C(C)C)c2)C(C)N2CCCCC2)cc1 (stereo not shown) ?
Response: False

Request: What about this compound? COc1c(C)c(C)c(C(O)(c2ccccc2)C(C)N2CCCCC2)c(C)c1C (stereo not shown)
Response: False

Request: Record: COc1c(C(C)C)cc(Cl)c(C)c1C(O)(c1ccccc1)C(C)N1CCCC1 (stereo not shown)
Response: False

Request: What do we get for C=CCc1cc2c(cc1C(O)(c1ccc(OC)cc1)C(C)N1CCCCC1)OCO2 (stereo not shown) ?
Response: False

Request: What do you get for COc1ccc(C(O)(c2cc(C(C)(C)C)cc(C)c2OC)C(C)N2CCCCC2)c(OC)c1 (stereo not shown) ?
Response: True

Request: // same read-out, input: COc1ccc(C)cc1C(O)(c1cc(C(C)C)c(OCc2ccccc2)c(C(C)C)c1)C(C)N1CCCCC1 (stereo not shown)
Response: False

Request: One more compound: COc1c(C)cc(C(C)(C)C)cc1C(O)(c1ccccc1)C(C)N1CCCCC1 (stereo not shown)
Response: True

Request: # iterate: COc1ccc(C(C)(C)C)cc1C(O)(c1ccccc1)C(C)N1CCCCC1 (stereo not shown)
Response: True

Request: Repeat for the following compound: Nc1nc(N)c2nc(-c3ccccc3)c(N)nc2n1 [2.4.7-triamino-6-phenyl-pteridine, reference compound]
Response: False

Request: Could you do the same for CCOc1ccc(C(O)(c2cc(C(C)C)c(OCC)c(C(C)C)c2)C(C)N2CCCCC2)cc1 (stereo not shown) , please?
Response: False

====

Run Description: saluretic efficiency test in rats: elimination of water, sodium, chloride and potassium in 6 h urine after oral dosing
Type: in vivo
Condition Notes: Rattus norvegicus, 6 h; rats, oral, 80 μmol/kg body wt.; relative to mean K+ elimination of the controls; read-out: Mean percentage variation in the elimination of potassium
Measure: change in vivo at 80 µmol/kg (%)
Entry rule: numbers only, all in %.

Request: I have this compound here, COc1c(C(C)C)cc(Cl)c(C)c1C(O)(c1ccccc1)C(C)N1CCCC1 (stereo not shown) , and I need its recorded change in vivo at 80 µmol/kg.
Response: 25.5

Request: Item: COc1ccc(C(O)(c2cc(C(C)C)c(OC)c(C(C)C)c2)C(C)N2CCCCC2)cc1 (stereo not shown)
Response: 19.4

Request: And what about the compound CCOc1ccc(C(O)(c2cc(C(C)C)c(OC)c(C(C)C)c2)C(C)N2CCCCC2)cc1 (stereo not shown) ?
Response: 1

Request: Cool, now COc1c(C)cc(C(O)(c2cc(Cl)cc(C)c2OC)C(C)N(C)C(C)(C)C)cc1C (stereo not shown)
Response: 34.7

Request: Follow-up entry: COc1c(C)cc(C(O)(c2cc(C(C)C)c(OC)c(C(C)C)c2)C(C)N2CCCCC2)cc1C (stereo not shown)
Response: 4

Request: Entry to check: COc1ccc(C(O)(c2cc(C(C)(C)C)cc(C)c2OC)C(C)N2CCCCC2)c(OC)c1 (stereo not shown)
Response: -23.5

Request: Then this compound: COc1cc(C)c(C(O)(c2ccccc2)C(C)N2CCCC2)cc1C(C)(C)C (stereo not shown)
Response: 22.4

Request: Ok, now COc1c(C)c(C)c(C(O)(c2ccccc2)C(C)N2CCCCC2)c(C)c1C (stereo not shown)
Response: 9.2

Request: Also CCOc1c(C(C)C)cc(C(O)(c2ccc(OC)cc2)C(C)N2CCCCC2)cc1C(C)C (stereo not shown) , if possible.
Response: -2

Request: What do we get for COc1ccc(C(O)(c2cc(C(C)C)c(OC)c(C(C)C)c2)C(C)N2CCCCC2)cc1OC (stereo not shown) ?
Response: -12.2

Request: Now the compound COc1cc(C)c(C(O)(c2ccccc2)C(C)N2CCCCC2)cc1C(C)C (stereo not shown)
Response: 13.3

Request: Next compound up: Cc1c(C(O)(c2ccccc2)C(C)N2CCCCC2)cc2c(c1C)OCCC2 (stereo not shown)
Response: 35.7

Request: Then COc1ccc(C(O)(c2cc(C(C)(C)C)cc(C)c2OC)C(C)N2CCCCC2)cc1OC (stereo not shown) ?
Response: -1

Request: Cool, now Nc1nc(N)c2nc(-c3ccccc3)c(N)nc2n1 [2.4.7-triamino-6-phenyl-pteridine, reference compound]
Response: -55.1

Request: // same read-out, input: CCCC(C)(C)c1cc(C)c(OC)c(C(O)(c2ccccc2)C(C)N2CCCC2)c1 (stereo not shown)
Response: -7.1

Request: For C=CCc1cc2c(cc1C(O)(c1ccc(OC)cc1)C(C)N1CCCCC1)OCO2 (stereo not shown) then?
Response: 32.7

Request: Note, next up: COc1ccc(C)cc1C(O)(c1cc(C(C)C)c(OCc2ccccc2)c(C(C)C)c1)C(C)N1CCCCC1 (stereo not shown)
Response: 16.3

Request: Similarly, COc1c(C)cc(C(C)(C)C)cc1C(O)(c1ccccc1)C(C)N1CCCCC1 (stereo not shown) ?
Response: 29.6

Request: And for COc1ccc(C(C)(C)C)cc1C(O)(c1ccccc1)C(C)N1CCCCC1 (stereo not shown) ?
Response: 38.8
